system_under_test: Adenosine receptor A1 (Homo sapiens)
procedure_text: Displacement of [3H]CCPA from human recombinant adenosine A1 receptor expressed in CHO cells by liquid scintillation counting analysis
Assay type: cell-based
Examples of molecules with documented pKi follow.
Friendly reminder that pKi comes from taking -log10 of the concentration in mol/L.

Answered examples (3):
1. Nc1nc(-c2ccccc2)c2c(n1)-c1cc(OCCCN3CCCCC3)ccc1C2=O; 7.95
2. Nc1nc(-c2ccccc2)c2c(n1)-c1ccc(OCCCN3CCCC3)cc1C2; 6.08
3. Nc1nc(-c2ccc(OCCCN3CCCCC3)cc2)c2c(n1)-c1ccccc1C2=O; 6.88

Please look up its pKi: "Nc1nc(-c2ccc(OCCCN3CCCCC3)cc2)c2c(n1)-c1ccccc1C2"
5.60

====

system_under_test: Adenosine receptor A2b (Homo sapiens)
Sequence (whole entry): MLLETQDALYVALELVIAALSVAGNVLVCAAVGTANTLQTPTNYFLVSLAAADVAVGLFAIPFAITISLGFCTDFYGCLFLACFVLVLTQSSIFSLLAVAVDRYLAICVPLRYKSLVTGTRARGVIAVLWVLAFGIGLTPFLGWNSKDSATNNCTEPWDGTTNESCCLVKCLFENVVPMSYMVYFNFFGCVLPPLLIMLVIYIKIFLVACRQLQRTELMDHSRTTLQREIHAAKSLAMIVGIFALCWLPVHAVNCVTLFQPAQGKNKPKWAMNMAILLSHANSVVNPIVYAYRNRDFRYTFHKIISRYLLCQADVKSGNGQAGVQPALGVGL
procedure_text: Displacement of [3H]PSB-603 from human recombinant adenosine A2B receptor expressed in CHO cells at 1 uM by liquid scintillation counting analysis
Format: cell-based
measured_quantity: inhibition (%)
# output: bare number, implied unit %

1. Nc1nc(-c2ccccc2)c2c(n1)-c1ccc(OCCCN3CCCC3)cc1C2; 25

Lab note: need inhibition for "Nc1nc(-c2ccccc2)c2c(n1)-c1ccc(OCCCN3CCCCC3)cc1C2" on Adenosine receptor A2b (Homo sapiens), anyone have it?
34

Request: inhibition, test system Adenosine receptor A2b (Homo sapiens), entry "O=C(c1ccc(OCCCN2CCCCC2)cc1)C1CC1"
0

Lab request: please report inhibition under test system Adenosine receptor A2b (Homo sapiens) for "O=C(c1ccc(OCCCc2c[nH]cn2)cc1)C1CC1"
8

Identify the measured inhibition of "Nc1nc(-c2ccc(OCCCN3CCCCC3)cc2)c2c(n1)-c1ccc(OCCCN3CCCCC3)cc1C2" for Adenosine receptor A2b (Homo sapiens).
13

Form field - read-out: inhibition; system: Adenosine receptor A2b (Homo sapiens); submitted item: "Nc1nc(-c2ccc(OCCCN3CCCCC3)cc2)c2c(n1)-c1ccccc1C2"
28

Any idea what inhibition came out for "Nc1nc(-c2ccc(OCCCN3CCCCC3)cc2)c2c(n1)-c1ccc(OCCCN3CCCCC3)cc1C2=O" on Adenosine receptor A2b (Homo sapiens)?
15

====

system_under_test: Histamine H1 receptor (Homo sapiens)
Sequence (P35367 whole entry): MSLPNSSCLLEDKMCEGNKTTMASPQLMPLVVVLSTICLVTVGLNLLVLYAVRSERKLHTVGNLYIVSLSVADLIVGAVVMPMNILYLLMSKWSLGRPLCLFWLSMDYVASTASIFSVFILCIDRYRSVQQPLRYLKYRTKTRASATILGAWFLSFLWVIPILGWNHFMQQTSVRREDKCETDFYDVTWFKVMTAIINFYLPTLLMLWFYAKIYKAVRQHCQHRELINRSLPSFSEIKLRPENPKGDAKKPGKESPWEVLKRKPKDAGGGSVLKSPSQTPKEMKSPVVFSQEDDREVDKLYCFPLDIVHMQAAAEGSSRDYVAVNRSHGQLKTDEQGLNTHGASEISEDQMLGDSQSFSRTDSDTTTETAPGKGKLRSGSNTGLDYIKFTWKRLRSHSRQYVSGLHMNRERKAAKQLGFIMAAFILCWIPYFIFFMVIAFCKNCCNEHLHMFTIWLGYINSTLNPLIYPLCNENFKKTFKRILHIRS
procedure_text: Displacement of [3H]pyrilamine from human recombinant histamine H1 receptor expressed in CHO cells by liquid scintillation counting analysis
measured_quantity: Ki

1) Nc1nc(-c2ccccc2)c2c(n1)-c1cc(OCCCN3CCCCC3)ccc1C2=O; > 1000 nM

Here is the next item to consider.
Recorded Ki of "Nc1nc(-c2ccccc2)c2c(n1)-c1cc(OCCCN3CCCC3)ccc1C2" , please.
> 1000 nM

====

system_under_test: Histamine H3 receptor (Homo sapiens, UniProt Q9Y5N1)
Sequence (Q9Y5N1 whole entry): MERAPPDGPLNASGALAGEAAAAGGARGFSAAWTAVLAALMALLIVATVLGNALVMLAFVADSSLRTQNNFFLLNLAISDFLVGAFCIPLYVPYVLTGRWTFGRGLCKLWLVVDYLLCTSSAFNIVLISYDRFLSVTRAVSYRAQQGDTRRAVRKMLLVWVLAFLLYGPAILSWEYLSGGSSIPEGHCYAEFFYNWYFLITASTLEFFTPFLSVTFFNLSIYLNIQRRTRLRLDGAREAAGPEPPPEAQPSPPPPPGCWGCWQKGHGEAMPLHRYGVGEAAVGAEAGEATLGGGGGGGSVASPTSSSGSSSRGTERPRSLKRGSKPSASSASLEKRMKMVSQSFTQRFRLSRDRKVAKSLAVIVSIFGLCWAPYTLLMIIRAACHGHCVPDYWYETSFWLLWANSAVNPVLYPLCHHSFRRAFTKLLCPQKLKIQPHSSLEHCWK
procedure_text: Displacement of [3H] N-alpha methylhistamine from human recombinant histamine H3 receptor expressed in HEK293 cells measured after 90 mins
Listed below: Ki values for each entry.
Hi! Could you send only the number? It should be in nM, unit omitted.

Solved entries (count: 5):
1) Nc1nc(-c2ccccc2)c2c(n1)-c1ccc(OCCCN3CCCCC3)cc1C2; 2.3
2) Nc1nc(-c2ccc(OCCCN3CCCCC3)cc2)c2c(n1)-c1ccc(OCCCN3CCCCC3)cc1C2=O; 0.31
3) Nc1nc(-c2ccccc2)c2c(n1)-c1cc(OCCCN3CCCC3)ccc1C2=O; 17
4) Nc1nc(-c2ccc(OCCCN3CCCCC3)cc2)c2c(n1)-c1ccccc1C2=O; 0.28
5) Nc1nc(-c2ccccc2)c2c(n1)-c1ccc(OCCCN3CCCC3)cc1C2=O; 31

For "Nc1nc(-c2ccccc2)c2c(n1)-c1cc(OCCCN3CCCC3)ccc1C2" , what is its reported Ki?
11

So what does the record say about Ki for "Nc1nc(-c2ccccc2)c2c(n1)-c1ccc(OCCCN3CCCC3)cc1C2" ?
11

Looking for the measured Ki of "Nc1nc(-c2ccccc2)c2c(n1)-c1ccc(OCCCN3CCCCC3)cc1C2=O" , can you help?
36

# query: Ki of entry "Nc1nc(-c2ccc(OCCCN3CCCCC3)cc2)c2c(n1)-c1ccc(OCCCN3CCCCC3)cc1C2"
0.6

Return reported Ki; argument: "Nc1nc(-c2ccc(OCCCN3CCCCC3)cc2)c2c(n1)-c1ccccc1C2"
0.49

GET /values?readout=Ki&item= "Nc1nc(-c2ccccc2)c2c(n1)-c1cc(OCCCN3CCCCC3)ccc1C2=O"
52

Need Ki of "Nc1nc(-c2ccccc2)c2c(n1)-c1cc(OCCCN3CCCCC3)ccc1C2" , thanks.
4.5

====

This listing pairs compounds with measured inhibition at 0.5 h, 10 µM.
system_under_test: MAO-A (Homo sapiens)
Sequence (P21397 whole entry): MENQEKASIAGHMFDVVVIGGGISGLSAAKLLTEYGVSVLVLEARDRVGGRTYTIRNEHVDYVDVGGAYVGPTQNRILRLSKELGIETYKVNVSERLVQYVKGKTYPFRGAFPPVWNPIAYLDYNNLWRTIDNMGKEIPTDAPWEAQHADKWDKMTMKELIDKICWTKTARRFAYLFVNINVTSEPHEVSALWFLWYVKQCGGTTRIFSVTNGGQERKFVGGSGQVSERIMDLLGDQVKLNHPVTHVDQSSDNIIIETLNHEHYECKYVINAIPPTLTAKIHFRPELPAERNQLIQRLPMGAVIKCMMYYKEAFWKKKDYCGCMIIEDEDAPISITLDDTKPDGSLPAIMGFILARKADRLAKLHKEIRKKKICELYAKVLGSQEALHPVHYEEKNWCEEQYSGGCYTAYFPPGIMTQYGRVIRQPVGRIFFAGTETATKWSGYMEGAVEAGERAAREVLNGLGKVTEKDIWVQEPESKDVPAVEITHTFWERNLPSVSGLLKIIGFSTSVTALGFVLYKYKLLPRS
procedure_text: Inhibition of human recombinant MAO-A using kynuramine as substrate at 10 uM measured for 30 mins by spectrophotometric analysis
test_settings: probe kynuramine
Note to self: number, then unit, no commentary.

1. Nc1nc(-c2ccccc2)c2c(n1)-c1cc(OCCCN3CCCC3)ccc1C2; 7.4%

Which inhibition at 0.5 h, 10 µM is listed for "Nc1nc(-c2ccccc2)c2c(n1)-c1cc(OCCCN3CCCCC3)ccc1C2=O" ?
16%

====

// reported inhibition per item
system_under_test: Adenosine receptor A1 (Homo sapiens) (UniProt P30542)
Sequence (P30542 whole entry): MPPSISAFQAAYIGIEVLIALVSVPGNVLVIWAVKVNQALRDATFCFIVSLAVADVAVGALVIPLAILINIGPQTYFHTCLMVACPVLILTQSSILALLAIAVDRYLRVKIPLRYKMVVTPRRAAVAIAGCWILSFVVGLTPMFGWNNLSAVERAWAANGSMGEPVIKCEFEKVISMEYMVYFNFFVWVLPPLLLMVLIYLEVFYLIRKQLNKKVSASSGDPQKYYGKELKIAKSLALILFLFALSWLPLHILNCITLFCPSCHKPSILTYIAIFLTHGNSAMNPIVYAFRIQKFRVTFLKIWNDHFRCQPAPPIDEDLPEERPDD
procedure_text: Displacement of [3H]CCPA from human recombinant adenosine A1 receptor expressed in CHO cells at 1 uM by liquid scintillation counting analysis
Type: cell-based
Record the value in %, omitting the unit from your answer.

Record excerpt, results attached:
1. Nc1nc(-c2ccccc2)c2c(n1)-c1ccc(OCCCN3CCCCC3)cc1C2; 24
2. O=C(c1ccc(OCCCN2CCCCC2)cc1)C1CC1; -5
3. O=C(c1ccc(OCCCc2c[nH]cn2)cc1)C1CC1; -6

We now examine a further compound.
Give the measured inhibition of "Nc1nc(-c2ccc(OCCCN3CCCCC3)cc2)c2c(n1)-c1ccc(OCCCN3CCCCC3)cc1C2" .
23

====

system_under_test: MAO-B (Homo sapiens)
Sequence (P27338 whole entry): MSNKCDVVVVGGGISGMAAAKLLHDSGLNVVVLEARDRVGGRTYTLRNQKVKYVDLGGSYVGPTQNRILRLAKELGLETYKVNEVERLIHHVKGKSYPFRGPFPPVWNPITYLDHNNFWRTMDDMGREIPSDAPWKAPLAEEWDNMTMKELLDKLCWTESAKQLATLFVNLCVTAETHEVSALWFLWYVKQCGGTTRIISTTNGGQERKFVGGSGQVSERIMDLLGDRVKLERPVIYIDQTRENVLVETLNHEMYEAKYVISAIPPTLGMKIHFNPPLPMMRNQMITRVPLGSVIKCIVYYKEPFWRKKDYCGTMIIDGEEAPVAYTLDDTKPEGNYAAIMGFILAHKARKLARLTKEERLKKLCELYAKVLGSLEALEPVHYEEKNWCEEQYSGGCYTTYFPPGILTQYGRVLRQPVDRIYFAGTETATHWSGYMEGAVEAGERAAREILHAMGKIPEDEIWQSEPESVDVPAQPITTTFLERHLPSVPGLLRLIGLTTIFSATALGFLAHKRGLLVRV
procedure_text: Inhibition of human recombinant MAO-B using kynuramine as substrate at 10 uM measured for 30 mins by spectrophotometric analysis
test_settings: probe kynuramine
measured_quantity: inhibition at 0.5 h, 10 µM (%)
Respond numerically; units are % and should not be typed.

What value of inhibition at 0.5 h, 10 µM has been recorded for this entry: "Nc1nc(-c2ccccc2)c2c(n1)-c1cc(OCCCN3CCCC3)ccc1C2"
57

What does the data say about its inhibition at 0.5 h, 10 µM? Entry: "Nc1nc(-c2ccccc2)c2c(n1)-c1cc(OCCCN3CCCCC3)ccc1C2=O"
50

====

system_under_test: Adenosine receptor A2a (Homo sapiens, UniProt P29274)
Sequence (P29274 whole entry): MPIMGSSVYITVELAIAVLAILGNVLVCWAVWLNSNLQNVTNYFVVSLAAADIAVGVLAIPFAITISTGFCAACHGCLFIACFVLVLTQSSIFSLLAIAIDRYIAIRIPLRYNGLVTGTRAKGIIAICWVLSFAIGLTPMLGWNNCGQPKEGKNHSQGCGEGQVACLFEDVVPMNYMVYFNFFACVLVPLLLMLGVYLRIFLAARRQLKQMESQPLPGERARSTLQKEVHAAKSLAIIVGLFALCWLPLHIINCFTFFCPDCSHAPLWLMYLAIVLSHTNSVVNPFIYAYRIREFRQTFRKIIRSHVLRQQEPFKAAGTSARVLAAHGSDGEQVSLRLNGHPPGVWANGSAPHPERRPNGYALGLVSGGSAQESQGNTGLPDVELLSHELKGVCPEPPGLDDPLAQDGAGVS
procedure_text: Displacement of [3H]MSX-2 from human recombinant adenosine A2A receptor expressed in CHO cells by liquid scintillation counting analysis
measured_quantity: Ki

Lab request: please report Ki under test system Adenosine receptor A2a (Homo sapiens, UniProt P29274) for "Nc1nc(-c2ccccc2)c2c(n1)-c1ccc(OCCCN3CCCCC3)cc1C2"
> 1000 nM

Give Adenosine receptor A2a (Homo sapiens, UniProt P29274) Ki for "O=C(c1ccc(OCCCc2cnc[nH]2)cc1)C1CC1"
> 1000 nM

Reported Ki for Adenosine receptor A2a (Homo sapiens, UniProt P29274), given "O=C(c1ccc(OCCCN2CCCCC2)cc1)C1CC1" ?
> 1000 nM
